Consider the following molecules; for each one, report its viability, T/C.
Test system: 299254-011-R-J1-PDC complex spheroids viability;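 further: spheroids exposed to the agents for seven days before readout; percent viability relative to DMSO vehicle control wells = 100%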
Assay: Anticancer human tumor 299254-011-R-J1-PDC patient-derived melanoma cell line growth inhibition [GQUAD]
Details: second compound 10 µM; first compound 1 µM; active compounds read low
Give bare numbers, in %.

The following molecules have reported results that may help.
{"columns": ["molecule", "system-name", "u", "recorded-number"],
 "data": [
  ["COc1ccc([C@@H](O)c2cc(-c3ncnc4cc(N5CCOCC5)ccc34)c(F)cc2Cl)nn1 + CN(C)c1ccc(Nc2c3ccc(NC(=O)CCN4CCCC4)cc3nc3cc(NC(=O)CCN4CCCC4)ccc23)cc1", "299254-011-R-J1-PDC complex spheroids viability", "%", 106],
  ["COc1ccc([C@@H](O)c2cc(-c3ncnc4cc(N5CCOCC5)ccc34)c(F)cc2Cl)nn1 + Cc1cnc(CNC(=O)c2c(=O)c3ccc(N4CCCN(C)CC4)nc3n3c2sc2ccccc23)cn1", "299254-011-R-J1-PDC complex spheroids viability", "%", 21.1],
  ["COc1cccc2c1C(=O)c1c(O)c3c(c(O)c1C2=O)CC(O)(C(=O)CO)CC3OC1CC(N)C(O)C(C)O1 (centres undefined) + Cc1cnc(CNC(=O)c2c(=O)c3ccc(N4CCCN(C)CC4)nc3n3c2sc2ccccc23)cn1", "299254-011-R-J1-PDC complex spheroids viability", "%", 63.3],
  ["CCCS(=O)(=O)Nc1ccc(F)c(C(=O)c2c[nH]c3ncc(-c4ccc(Cl)cc4)cc23)c1F + Cc1cnc(CNC(=O)c2c(=O)c3ccc(N4CCCN(C)CC4)nc3n3c2sc2ccccc23)cn1", "299254-011-R-J1-PDC complex spheroids viability", "%", 0.54]
]}

For each of the molecules below, note its viability, T/C.
1. CC(C)n1c(=O)n(C)c2cnc3cc(F)c(-c4ccc(OCCCN5CCCCC5)nc4)cc3c21 + Cc1cnc(CNC(=O)c2c(=O)c3ccc(N4CCCN(C)CC4)nc3n3c2sc2ccccc23)cn1
2. CC(C)n1c(=O)n(C)c2cnc3cc(F)c(-c4ccc(OCCCN5CCCCC5)nc4)cc3c21 + Cc1[nH]c2ccc(F)cc2c1-c1nc2c3cccnc3c3ncccc3c2[nH]1
3. Cc1cccc(N(C)C(=O)C2C(O)CCN2c2nc(C)cc(C(F)(F)F)c2C#N)c1 (centres undefined) + Cc1[nH]c2ccc(F)cc2c1-c1nc2c3cccnc3c3ncccc3c2[nH]1
4. CC1COCCN1c1cc(C2(S(C)(=N)=O)CC2)nc(-c2ccnc3[nH]ccc23)n1 (centres undefined) + Cc1[nH]c2ccc(F)cc2c1-c1nc2c3cccnc3c3ncccc3c2[nH]1
5. Cc1cccc(N(C)C(=O)C2C(O)CCN2c2nc(C)cc(C(F)(F)F)c2C#N)c1 (centres undefined) + Cc1cnc(CNC(=O)c2c(=O)c3ccc(N4CCCN(C)CC4)nc3n3c2sc2ccccc23)cn1

Result string:
1. 3.21
2. 84.8
3. 89.5
4. 92
5. 84.4

Data origin: PubChem BioAssay AID2060513
